Tested on: Plasmodium berghei
Experiment: Screen against P. berghei liver stage (PbLuc), transformed with Luciferase, at 2uM
Format: functional, HepG2
Settings: tested at 2 uM
About 2,700 (4%) of roughly 68,000 compounds showed an effect of 50% or more. For the sample, strong results were picked, then their nearest neighbours and some compounds at random.
Measure: INHIBITION (%)
Answer format: numeric, % implied, no suffix.

I am curious: what INHIBITION value has been reported for COc1ccc(Cl)cc1C(C(=O)O)N(C)Cc1ccon1 (stereo not given) ? -35.07

Also Cc1nc(N2CCCC2)nc2c1CCN(C(=O)NC1CCCC1)CC2 ? 40.28

Also Cc1nc(N2CCCC2)nc2c1CCN(C(=O)NC(C)C)CC2 ? -4.2

Also Cc1nc(N2CCCC2)nc2c1CN(C(=O)NC(C)C)CC2 ? 60.05

Also Cc1ncsc1CCN(C)Cc1ccc(CO)o1 ? 36.28

Also CCCS(=O)(=O)N1CCc2nc(N3CCOCC3)nc(N(C)C)c2C1 ? 40.64

Also COc1ncc(C(=O)NCc2ccc(Br)cc2)cn1 ? 18.8

Also N#CCCn1nc(C(F)(F)F)c2c1CCC2 ? 10.83

Also Cc1nc(-c2cc(C(=O)NCCN3CCOCC3)c3ccccn23)cs1 ? -40.36

Also Cc1nc(N2CCOCC2)nc2c1CCN(C(=O)NC1CCCC1)CC2 ? 51.57

Also CCC(=O)N1CCc2nc(N3CCOCC3)nc(N(C)C)c2CC1 ? 54.62

Also NCCCn1nc(C(F)(F)F)c2c1CCC2 ? 58.18

Also Cc1nc(CNCc2c(C(C)C)nn(C)c2N2CCOCC2)cs1 ? 7.64

Also COc1ncc(C(=O)NCc2ccccc2)cn1 ? 60.36

Also COc1cc(C)cc(C(C(=O)O)N(C)Cc2ccon2)c1OC (stereo not given) ? 76.6

Also CN(Cc1cccc(O)c1)C(=O)c1ccc(CCC(C)(C)O)cc1 ? 19.75

Also COc1cc(F)ccc1C(C(=O)O)N(C)Cc1ccon1 (stereo not given) ? 12.55

Also COc1ccc(CN2CCN(C(=O)c3ccc(C)n3C)CC2)cc1 ? -10.64

Also O=S(=O)(c1cccs1)N1CC[C@H]2[C@H]1CCN2c1ncccn1 ? 56.76

Also Cc1ccsc1CN(C)CCc1scnc1C ? 57.75

Also COC(=O)c1ccc(C(=O)NCc2ccc(Br)cc2)cn1 ? 38.67

Also Cc1n[nH]cc1C(=O)NCc1cccnc1N1CCc2ccccc2C1 ? 18.63

Also Cc1cccc(C2(CNC(=O)CO)CCCC2)c1 ? 35.23

Also CC(=O)N1CCc2nc(N3CCCC3)nc(C)c2C1 ? 15.57

Also Cc1ccc(C(=O)N2CCN(Cc3ccc(C#N)cc3)CC2)n1C ? 28.18

###

Tested on: Plasmodium berghei
Test: Screen against P. berghei liver stage (PbLuc), transformed with Luciferase, at 2uM
Type: functional, HepG2
Conditions: tested at 2 uM
The whole screen tested about 68,000 compounds, of which about 2,700 (4%) showed an effect of 50% or more. The entries come from a sample that favours strong results as a whole.
Measure: INHIBITION

I am curious: what INHIBITION value has been reported for CC(C)(O)CN1CCN(C(=O)c2cccn2Cc2cccnc2)CC1 ? 54.5%

Also CCn1c(C2CCN(C(=O)c3ccc4sc(C)nc4c3)CC2)n[nH]c1=O ? 26.49%

Also CCCC(NC(=O)c1cc(C2CC2)[nH]n1)c1nnc2ccccn12 (stereo unspecified) ? 19.42%

Also CC(C)(O)CN1CCN(C(=O)c2cccn2Cc2ccncc2)CC1 ? -51.5%

Also COCC1CN(C(=O)Nc2cc(Cl)cc(Cl)c2)CCO1 (stereo unspecified) ? 13.12%

Also O=C(c1ccccc1F)N1CCOC(c2nc(-c3ncccn3)no2)C1 (stereo unspecified) ? -14.56%

###

System: Plasmodium berghei
Assay: Screen against P. berghei liver stage (PbLuc), transformed with Luciferase, at 2uM
Format: functional, HepG2
Conditions: tested at 2 uM
Out of some 68,000 compounds screened, about 2,700 (4%) showed an effect of 50% or more. What follows is part of a selection rich in strong results, with near analogues and random picks from the rest.
Use yes when the recorded INHIBITION is no lower than -20%; use no when it is lower.

Hi, just wondering whether COc1ccc(-c2nnc(CNCCn3cccn3)o2)cc1 shows INHIBITION of -20% or higher. yes

Also Oc1cc(C2CCCN(Cc3cccs3)C2)nc(-c2ccccn2)n1 (stereo unspecified) ? yes

Also Cc1nc2c(c(Nc3ccccn3)n1)CN(S(C)(=O)=O)CC2 ? no

Also CCN(Cc1cnc(NCc2ccccc2)nc1)C1CCS(=O)(=O)C1 (stereo unspecified) ? no

Also COc1ccc(C(=O)N2CCCCC2c2ccccn2)c(OC)n1 (stereo unspecified) ? yes

Also COc1ccc(C(C)CCNC2CCN(c3ccccn3)CC2)cc1 (stereo unspecified) ? yes

###

Give measured INHIBITION for each item. Keep answers brief.
Test system: Plasmodium berghei
Experiment: Screen against P. berghei liver stage (PbLuc), transformed with Luciferase, at 2uM
Assay type: functional, HepG2
Conditions: tested at 2 uM
Among all 68,000 compounds or so, about 2,700 (4%) showed an effect of 50% or more. The sample holds strong results, similar compounds and a random draw of the others, so the mix is not that of the screen.
Answer format: numeric, % implied, no suffix.

I am curious: what INHIBITION value has been reported for O=C(c1cccnc1)N1CCC(Oc2cccc(C(F)(F)F)c2)CC1 ? 45.82

Also CSc1ccc(NCc2csc(CS(C)(=O)=O)n2)cc1F ? 28.95

Also CN(Cc1cccnc1)C1CC2(CCN(Cc3ccccn3)CC2)C1 ? 27.9

Also Cc1noc(C)c1-c1cncc(C2CCCN2Cc2c[nH]cn2)n1 (stereo not drawn) ? 28.23

Also Cc1noc(C2CCN(C(=O)CCc3ccccn3)CC2)n1 ? 9.36

Also COc1cc(OC)c(CNC(=O)NCC(=O)N2CCCC2)c(OC)c1 ? -19.51

Also CNC(=O)N1CCc2cc(C(=O)NCC3CC3)c(NC(C)C)nc2CC1 ? 11.9

Also COc1cccn(Cc2nnc(-c3cccnc3)o2)c1=O ? -16.19

Also CC(C)n1cc(C(=O)NCCN(C)C)c2n[nH]c(=O)c-2c1 ? 9.1

Also Nc1ncnc2[nH]c(N3CCCCC3)nc12 ? -87.36

Also Cc1ccc(CCC(C)NC2CCN(C(N)=O)CC2)cc1 (stereo not drawn) ? -5.43

Also Cc1nc(C(=O)N2CCCCC2)nn1-c1ccccc1Cl ? 60.09

Also O=C(c1ccncc1)N1CCC(Oc2cccc(C(F)(F)F)c2)CC1 ? 26.74

Also Cc1cn2c(n1)CCC(NC(=O)CCOc1cccc(F)c1)C2 (stereo not drawn) ? -34.22

Also c1ccc(-c2ncc(CNC3CCc4ncnn4C3)cn2)cc1 (stereo not drawn) ? 15.31

Also O=S(=O)(Nc1cnn(C2CCOCC2)c1)c1ccc(F)c(F)c1 ? -38.4

Also CS(=O)(=O)Cc1nc(CNc2ccc(F)c(F)c2)cs1 ? 56.49

Also CCN(CC)Cc1ccccc1NCc1c(C)noc1C ? 71.91

Also COc1c(C2CCCN2C(=O)c2ccc(C(N)=O)s2)c(C)nn1C (stereo not drawn) ? -21.71

Also CC(NC(=O)c1ccoc1)C(=O)N(C)Cc1cccc(C(F)(F)F)c1 (stereo not drawn) ? 2.51

Also CNC(=O)c1cc2c(nc1NC(C)C)CCNCC2 ? -9.98

Also Cc1noc(C)c1-c1cncc(C2CCCN2Cc2cc[nH]n2)n1 (stereo not drawn) ? 46.98

Also Cn1nccc1-c1nc2c(cc1C(=O)O)CCN(CC1CC1)CC2 ? 52.66

Also Cc1ccc(N2CC[C@H]3O[C@@H](C(=O)N4CCCO4)CC[C@H]32)nn1 ? -28.58

Also COc1ccccc1OCCC(=O)N1CCCC1Cn1cc(C)cn1 (stereo not drawn) ? -14.11

Also Cc1cc(C)nc(N2CCC(Cn3cc(C(N)=O)cn3)CC2)n1 ? 0.93

Also CCS(=O)(=O)CC(=O)Nc1ccccc1N1CCc2ccccc21 ? 6.07

Also Cc1ccc(C2NC(=O)c3cc(C(C)C)sc3N2)cc1 (stereo not drawn) ? 46.98

Also Cc1noc(C)c1CNS(=O)(=O)N(C)Cc1ccccc1Br ? -45.67

Also CSC1=Nc2c(cnn2-c2ccc(Cl)cc2)C2=NCCCN12 ? -4.43

Also CC(N)C(=O)N1CCC(Oc2cccc(C(F)(F)F)c2)CC1 (stereo not drawn) ? 48.21

Also CNC(=O)c1cc2c(nc1NCC1CC1)CCN(CC1CC1)CC2 ? 11.18

Also CCOc1cccc(CNC(=O)c2cnn(CC)c2C(F)(F)F)c1 ? 40.97

Also O=C(Nc1nncs1)C1CSCN1C(=O)C1CCCC1 (stereo not drawn) ? -67.78

Also CC(C1CC1)N(C)C(=O)c1ccc(-n2ncc(C#N)c2N)cc1 (stereo not drawn) ? 26.2

Also Cc1ccc(CN2C[C@@H]3CCN(Cc4cccnc4)C(=O)[C@H]3C2)s1 ? 41.38

Also CC(=O)N(C)Cc1ccccc1NCc1c(C)noc1C ? 47.68

Also CCCC(=O)N1CCN(CCN(C)C)c2nc(C)ccc2C1 ? 19.51

Also Cc1noc(C(C)Nc2ccc3c(c2)CCC3)n1 (stereo not drawn) ? -46.99

Also Cc1csc2ncc(-c3ccnc(N4CCC[C@H](C(N)=O)C4)n3)c(=O)n12 ? 43.16

Also CCc1nc(C(=O)N2CCCCC2)nn1-c1ccccc1Cl ? -41.76

Also CNc1ccccc1C(=O)N(C)CCc1ccccc1 ? -88.87

Also Cc1noc(C)c1-c1cncc(C2CCCN2Cc2cn(C)cn2)n1 (stereo not drawn) ? 50.32

Also CCn1ncc(C(=O)NCc2ccc(C)c(OC)c2)c1C(F)(F)F ? 55.52

Also Cc1ccccc1C(C(=O)N(C)Cc1cnn(C)c1)N(C)C (stereo not drawn) ? -15.75

Also Nc1cc(C(=O)N2CCC(Oc3cccc(C(F)(F)F)c3)CC2)ccn1 ? 72.05

Also O=C(CCNc1ncccn1)N1CCN(c2nccs2)CC1 ? 9.41

Also CCN1CCN(C(=O)c2nc(C)n(-c3ccccc3Cl)n2)CC1 ? -18.67

Origin of measurements: ChEMBL document CHEMBL4513216
